Test system: Fusarium oxysporum f. sp. vasinfectum
Assay: Antifungal activity against Fusarium oxysporum f. sp. vasinfectum assessed as growth inhibition at 50 ug/mL measured after 2 days post dose
Assay type: functional
Details: 48 h, read-out: GI
Assay Endpoint: inhibition of growth at 50 µg/mL
Write the numeric value and follow it with the unit.

These recorded examples may help you get a feel for the data.
Cc1ccc(NC(=O)c2snnc2C)cc1Cl :: 5.3%
COc1cccc(-c2nnc(-c3snnc3C)o2)c1 :: 0%
CCCc1c(-c2nnc(-c3snnc3C)o2)cnn1-c1ccc(Cl)cc1 :: 0%
CCCc1sc(NC(=O)c2snnc2C)nc1-c1ccc(Cl)cc1Cl :: 3.6%
Cc1ccc(-c2nnc(-c3snnc3C)o2)s1 :: 0%

response.value for "Cc1nn(-c2ccccc2)nc1-c1nnc(-c2snnc2C)o1" (field: inhibition of growth at 50 µg/mL) = 0%

response.value for "COc1ccc(-c2csc(NC(=O)c3snnc3C)n2)cc1" (field: inhibition of growth at 50 µg/mL) = 0%

Lab note: "Cc1nnsc1C(=O)Nc1nc(-c2ccccc2)cs1" gave inhibition of growth at 50 µg/mL of 40%

# inhibition of growth at 50 µg/mL of "Cc1nnsc1C(=O)Nc1nc(-c2ccc([N+](=O)[O-])cc2)cs1" = 14.3%

Lookup result for "Cc1nnsc1-c1nnc(-c2snnc2C)o1" ; measured inhibition of growth at 50 µg/mL: 0%

response.value for "Cc1ccc(-c2nnc(-c3snnc3C)o2)c(Cl)n1" (field: inhibition of growth at 50 µg/mL) = 0%

Lab note: measured inhibition of growth at 50 µg/mL of "CCc1sc(NC(=O)c2snnc2C)nc1-c1ccc(Cl)cc1Cl" was 20%

====

System: Alternaria mali
Test: Antifungal activity against Alternaria mali assessed as growth inhibition at 50 ug/mL measured after 2 days post dose
Type: functional
Settings: 48 h, read-out: GI
Assay Endpoint: inhibition of growth at 50 µg/mL (%)
Note: unit % is implicit; provide only the numeric part.

COc1cccc(-c2nnc(-c3snnc3C)o2)c1 :: 27.6
CCCCCCCc1nnc(-c2snnc2C)o1 :: 38.9
Cc1nnsc1-c1nnc(-c2ccc(=O)[nH]c2)o1 :: 27.3

// assay Alternaria mali, entry "COc1ccc(-c2nnc(-c3snnc3C)o2)cc1" , inhibition of growth at 50 µg/mL value = 37.9

Entry "CCc1cnc(NC(=O)c2snnc2C)s1" , tested on Alternaria mali, has a reported inhibition of growth at 50 µg/mL of 25

inhibition of growth at 50 µg/mL of "Cc1ccc(-c2nnc(-c3snnc3C)o2)s1" , assay on Alternaria mali, is 38.9

Record "Cc1nnsc1C(=O)Nc1nc(-c2ccc([N+](=O)[O-])cc2)cs1" has Alternaria mali inhibition of growth at 50 µg/mL equal to 24.1

Record for "Cc1cccc(-c2nnc(-c3snnc3C)o2)c1" under target or system Alternaria mali: inhibition of growth at 50 µg/mL reported as 41.4

====

Examples of compounds with documented inhibition of growth at 50 µg/mL follow.
System: Ustilaginoidea virens
Experiment: Antifungal activity against Villosiclava virens assessed as growth inhibition at 50 ug/mL measured after 2 days post dose
Format: functional
Conditions: 48 h, read-out: GI
Your answer is read as %, so omit the unit and give the number.

The examples below pair each entry with its known result.
Cc1nnsc1C(=O)Nc1nc(-c2ccc(Cl)cc2)cs1 :: 11.1
Cc1ccc(NC(=O)c2snnc2C)cc1Cl :: 12
CCCc1c(-c2nnc(-c3snnc3C)o2)cnn1-c1ccc(Cl)cc1 :: 0
COc1cccc(-c2nnc(-c3snnc3C)o2)c1 :: 0

Entry "CCCCCCCc1nnc(-c2snnc2C)o1" ; inhibition of growth at 50 µg/mL = 0

response.value for "Cc1nnsc1C(=O)Nc1nc(-c2ccccc2)cs1" (field: inhibition of growth at 50 µg/mL) = 55.6

Per the record, "Cc1ccc(-c2nnc(-c3snnc3C)o2)s1" has inhibition of growth at 50 µg/mL of 0

Recorded inhibition of growth at 50 µg/mL (compound "Cc1nn(-c2ccccc2)nc1-c1nnc(-c2snnc2C)o1" ): 0

Lab book: inhibition of growth at 50 µg/mL of "CCc1cnc(NC(=O)c2snnc2C)s1" noted as 50
